EXPERIMENTAL TARGET: HDAC6 (α-tubulin acetylation) (Homo sapiens)
Construct: endogenous in cells; host or cells: HeLa
TEST DETAILS: ELISA assay of acetylation of α-tubulin in HeLa cells
Type: cell-based
CONDITION DESCRIPTION: M-HeLa, 24 hours
I'd appreciate it if you could supply fold induction at 10 µM values for the items below.
Reply with just the number.

**Q:** Quick one: fold induction at 10 µM for Cc1[nH]c(/C=N/N=C2\C(=O)Nc3ccc(F)cc32)c(C)c1C(=O)NCCCCCC(=O)Nc1ccccc1N [Example 13] ?
**A:** 2.73

**Q:** Also need Nc1ccccc1NC(=O)CCCCCNC(=O)c1ccc(/C=C2\C(=O)Nc3ccc(F)cc32)cc1 [Example 39] , thanks.
**A:** 0.93

**Q:** Another molecule to check: O=C(CCCCCCCNC(=O)c1cccc(/C=C2\C(=O)Nc3ccc(F)cc32)c1)NO [Example 56]
**A:** 2.66

**Q:** Please answer likewise for Cc1[nH]c(/C=N/N=C2\C(=O)Nc3ccc(F)cc32)c(C)c1C(=O)NCCCCCCCC(=O)Nc1ccccc1N [Example 28]
**A:** 1.74

* * *

EXPERIMENTAL TARGET: HDAC6 (α-tubulin acetylation) (Homo sapiens)
Construct: endogenous in cells; host or cells: HeLa
Sequence (Q9UBN7 1-1215): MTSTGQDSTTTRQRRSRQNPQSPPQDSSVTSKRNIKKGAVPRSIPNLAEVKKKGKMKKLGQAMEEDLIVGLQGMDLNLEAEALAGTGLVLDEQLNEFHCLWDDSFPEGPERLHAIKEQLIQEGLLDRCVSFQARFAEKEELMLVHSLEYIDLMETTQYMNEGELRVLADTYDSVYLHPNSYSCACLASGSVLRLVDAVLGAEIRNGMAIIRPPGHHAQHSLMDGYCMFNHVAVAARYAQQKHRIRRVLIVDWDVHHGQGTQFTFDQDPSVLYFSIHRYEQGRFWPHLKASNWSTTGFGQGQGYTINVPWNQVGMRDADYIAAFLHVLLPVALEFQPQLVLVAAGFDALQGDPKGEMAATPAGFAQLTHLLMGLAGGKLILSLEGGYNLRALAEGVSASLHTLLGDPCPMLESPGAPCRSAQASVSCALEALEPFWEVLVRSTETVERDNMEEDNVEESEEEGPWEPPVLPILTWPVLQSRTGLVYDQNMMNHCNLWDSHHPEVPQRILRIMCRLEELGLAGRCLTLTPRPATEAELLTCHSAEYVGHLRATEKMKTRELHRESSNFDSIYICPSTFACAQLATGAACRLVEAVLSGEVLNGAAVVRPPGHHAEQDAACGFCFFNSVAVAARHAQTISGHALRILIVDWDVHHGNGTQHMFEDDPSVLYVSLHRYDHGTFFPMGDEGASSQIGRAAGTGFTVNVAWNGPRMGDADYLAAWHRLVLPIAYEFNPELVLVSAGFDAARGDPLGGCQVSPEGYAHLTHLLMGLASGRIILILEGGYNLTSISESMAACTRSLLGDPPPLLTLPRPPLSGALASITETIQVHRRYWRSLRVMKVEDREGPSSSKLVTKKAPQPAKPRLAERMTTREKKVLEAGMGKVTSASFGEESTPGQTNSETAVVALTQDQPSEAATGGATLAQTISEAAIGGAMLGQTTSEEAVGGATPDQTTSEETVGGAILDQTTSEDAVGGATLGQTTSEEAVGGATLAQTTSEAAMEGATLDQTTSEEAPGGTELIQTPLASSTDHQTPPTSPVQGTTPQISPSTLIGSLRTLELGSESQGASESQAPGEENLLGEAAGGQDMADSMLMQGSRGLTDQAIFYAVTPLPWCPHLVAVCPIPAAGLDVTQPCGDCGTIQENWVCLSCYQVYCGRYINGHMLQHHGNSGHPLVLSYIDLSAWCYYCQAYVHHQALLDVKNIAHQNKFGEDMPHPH
TEST DETAILS: ELISA assay of acetylation of α-tubulin in HeLa cells
Format: cell-based
CONDITION DESCRIPTION: M-HeLa, 24 hours
Please provide measured fold induction at 10 µM for the entries that follow.
Simply state the number, no unit and no words.

**Q:** Please give the measured fold induction at 10 µM for this compound: Cc1[nH]c(/C=N/N=C2\C(=O)Nc3ccc(F)cc32)c(C)c1C(=O)NCCCCCC(=O)Nc1ccc(F)cc1N
**A:** 2.04

**Q:** Also, Nc1cc(F)ccc1NC(=O)CCCCNC(=O)c1cccc(/C=C2\C(=O)Nc3ccc(F)cc32)c1 please.
**A:** 1.97

**Q:** Same for O=C(CCCCNC(=O)c1cccc(/C=C2\C(=O)Nc3ccc(F)cc32)c1)NO
**A:** 1.97

Cited source for all entries: patent US7863315B2
